Target: human PHD2 (Homo sapiens (Human))
Test: Test 2: human PHD2 inhibitory activity, fluorescence polarization assay of HIF-1α peptide proline hydroxylation
Type: biochemical
Details: test compound's concentration 1 μM; Test 2, fluorescence polarization assay; read-out: Percent inhibition (% at 1 μM)
PROPERTY_LABEL: inhibition at 1 µM (%)
Record the value in %, omitting the unit from your answer.

Give its inhibition at 1 µM value. Item: O=C(O)CNC(=O)C1=C(O)CCN(Cc2ccc(Oc3ccc(F)cc3)cn2)C1=O
91

State the recorded inhibition at 1 µM for this entry: O=C(O)CNC(=O)C1=C(O)CCN(Cc2ccc(Oc3cccc(F)c3)cc2)C1=O
90

Data request, read-out inhibition at 1 µM, for CC1(C)CC(O)=C(C(=O)NCC(=O)O)C(=O)N1Cc1cc(-c2ccc(Cl)cc2)no1
88

----------
Provide the recorded inhibition at 1 µM for the entries that follow.
Biological target: human PHD2 (Homo sapiens (Human), UniProt Q9GZT9)
Sequence (Q9GZT9 whole entry): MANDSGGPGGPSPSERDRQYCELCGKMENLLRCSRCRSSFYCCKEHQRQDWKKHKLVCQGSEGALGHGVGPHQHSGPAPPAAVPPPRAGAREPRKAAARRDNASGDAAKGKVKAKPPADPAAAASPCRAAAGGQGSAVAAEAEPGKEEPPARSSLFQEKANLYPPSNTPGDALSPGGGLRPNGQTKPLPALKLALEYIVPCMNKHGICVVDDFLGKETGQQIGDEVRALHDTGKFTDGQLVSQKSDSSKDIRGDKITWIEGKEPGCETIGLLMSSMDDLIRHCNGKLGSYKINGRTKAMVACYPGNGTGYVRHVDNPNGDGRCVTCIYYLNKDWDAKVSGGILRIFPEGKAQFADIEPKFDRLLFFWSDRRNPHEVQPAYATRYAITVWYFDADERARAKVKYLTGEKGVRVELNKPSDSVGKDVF
Assay: Test 1: human PHD2 inhibitory activity, [14C]-2-oxoglutarate to [14C]-succinic acid radiometric assay with HIF-1α peptide
Assay type: biochemical
Conditions: test compound's concentration 1 μM; Test 1, [14C]-2-oxoglutarate radiometric assay; read-out: Percent inhibition (% at 1 μM)
Just the number in %, nothing appended.

Suppose we examine the molecule O=C(O)CNC(=O)C1=C(O)CCN(Cc2ccccc2)C1=O ; what inhibition at 1 µM value has been reported?
72

What does the record list as inhibition at 1 µM for CC1(C)CC(O)=C(C(=O)NCC(=O)O)C(=O)N1Cc1cc(-c2ccc(Cl)cc2)no1 ?
88

What does the record list as inhibition at 1 µM for O=C(O)CNC(=O)C1=C(O)C2(CCC2)CN(Cc2ccc(-c3ccccc3)cc2)C1=O ?
72

Any idea what its inhibition at 1 µM is? The molecule is O=C(O)CNC(=O)C1=C(O)CCN(Cc2ccc(-c3ccc(Cl)c(Cl)c3)cc2)C1=O
88

Consider the molecule O=C(O)CNC(=O)C1=C(O)CCN(CCc2ccc(-c3ccccc3)cc2)C1=O and give its measured inhibition at 1 µM.
89

----------
Molecular target: human PHD2 (Homo sapiens (Human), UniProt Q9GZT9)
Test: Test 2: human PHD2 inhibitory activity, fluorescence polarization assay of HIF-1α peptide proline hydroxylation
Type: biochemical
Settings: test compound's concentration 1 μM; Test 2, fluorescence polarization assay; read-out: Percent inhibition (% at 1 μM)
Tag: Y if measured inhibition at 1 µM is not below 80%, N if it is.

Evaluate CC1(C)CN(Cc2ccc(C(F)(F)F)cc2)C(=O)C(C(=O)NCC(=O)O)=C1O : inhibition at 1 µM at minimum 80%?
N

Hello, I need to know if O=C(O)CNC(=O)C1=C(O)C2(CCC2)CN(Cc2ccc(OC(F)(F)F)c(Cl)c2)C1=O has measured inhibition at 1 µM not below 80%. Thanks!
N

Would you say O=C(O)CNC(=O)C1=C(O)CCN(Cc2ccc(Oc3ccccc3F)cc2)C1=O shows inhibition at 1 µM at minimum 80%?
Y

Quick check, inhibition at 1 µM >= 80%? CC(C)c1ccc(Oc2ccc(CN3CCC(O)=C(C(=O)NCC(=O)O)C3=O)cn2)cc1
Y

Could you please find out whether COc1ccc(CN2C(=O)C(C(=O)NCC(=O)O)=C(O)CC2(C)C)cc1F has inhibition at 1 µM that meets 80% or exceeds it?
N

Is inhibition at 1 µM at least 80%? Consider CN1CCN(c2ccc(CN3CCC(O)=C(C(=O)NCC(=O)O)C3=O)cc2)CC1
N

Entry O=C(O)CNC(=O)C1=C(O)C2(CCCCC2)CN(Cc2ccc3ccccc3c2)C1=O : is its inhibition at 1 µM no less than 80%?
N

Kindly determine if inhibition at 1 µM recorded for CC1CN(Cc2ccc(-c3ccc(C(F)(F)F)cc3)cc2)C(=O)C(C(=O)NCC(=O)O)=C1O (stereo not shown) is above or exactly 80%.
Y
